This section presents molecules with their documented efflux ratio values.
- System: P-gp (human PGP)
- ASSAY_NAME: Membrane permeability in MDCKII/PGP cells
- Type: in vitro ADME
- RUN_PARAMETERS: dog, MDCK-MDR1; MDCKII cells transfected with human PGP; read-out: Permeability MDCKII/PGP AI (asymmetry index)
Non-standard residues stand in square brackets, D forms with d. Residues, ends and D or L forms follow the SMILES beside them. ξ: configuration not given here. *: point of attachment. ξNMeW = CNC(Cc1c[nH]c2ccccc12)C(=O)O; NMeAib = CNC(C)(C)C(=O)O; Boc = CC(C)(C)OC(=O)*; Aib = CC(C)(N)C(=O)O
Answer using only a numeral; do not append any unit.

// worked examples, efflux ratio included
[
  {
    "MOLECULE": "CC(=O)N(C)C(Cc1c[nH]c2ccccc12)C(=O)NC(C)(C)C(=O)O (stereo not shown) (Ac-[ξNMeW]-[Aib]-OH)",
    "QUANTITY_MEASURED": "efflux ratio",
    "MEAS_VALUE": 0.8
  },
  {
    "MOLECULE": "CC(C)(C)OC(=O)N/C(=C\\c1c[nH]c2ccccc12)C(=O)NC(C)(C)C(=O)O [drawing 63]",
    "QUANTITY_MEASURED": "efflux ratio",
    "MEAS_VALUE": 1.2
  },
  {
    "MOLECULE": "CN(C(=O)[C@@H](Cc1c[nH]c2ccccc12)NC(=O)OC(C)(C)C)C(C)(C)C(=O)O [drawing 65] (Boc-[dW]-[NMeAib]-OH)",
    "QUANTITY_MEASURED": "efflux ratio",
    "MEAS_VALUE": 0.3
  },
  {
    "MOLECULE": "CC(=O)N[C@H](Cc1c[nH]c2ccccc12)C(=O)N(C)C(C)(C)C(=O)O [drawing 66] (Ac-[dW]-[NMeAib]-OH)",
    "QUANTITY_MEASURED": "efflux ratio",
    "MEAS_VALUE": 1
  },
  {
    "MOLECULE": "CC(C)(NC(=O)C(Cc1c[nH]c2ccccc12)NC=O)C(=O)O (stereo not shown)",
    "QUANTITY_MEASURED": "efflux ratio",
    "MEAS_VALUE": 0.7
  },
  {
    "MOLECULE": "CC(=O)NC(Cc1c[nH]c2ccccc12)C(=O)NC(C)(C)C(=O)O (stereo not shown)",
    "QUANTITY_MEASURED": "efflux ratio",
    "MEAS_VALUE": 0.7
  }
]

Turning to the following molecule.
Prompt: Entry CC(C)(C)OC(=O)N/C(=C\c1c[nH]c2ccccc12)C(=O)NC(C)(C)C(N)=O [drawing 64] has what efflux ratio?
Completion: 1.6

* * *

- ASSAY_NAME: Metabolic stability in rat liver microsomes
- Format: in vitro ADME
- RUN_PARAMETERS: % of compound remaining after 30 minutes
Non-standard residues stand in square brackets, D forms with d. Residues, ends and D or L forms follow the SMILES beside them. ξ: configuration not given here. *: point of attachment. ξW = NC(Cc1c[nH]c2ccccc12)C(=O)O; NMeAib = CNC(C)(C)C(=O)O; Boc = CC(C)(C)OC(=O)*; Aib = CC(C)(N)C(=O)O
QUANTITY_MEASURED: Metabolic Stability (%) RLM

// worked examples, Metabolic Stability (%) RLM included
[
  {
    "COMPOUND": "CC(=O)N[C@H](Cc1c[nH]c2ccccc12)C(=O)N(C)C(C)(C)C(=O)O [drawing 66] (Ac-[dW]-[NMeAib]-OH)",
    "Metabolic Stability (%) RLM": ">100%"
  },
  {
    "COMPOUND": "CC(C)(NC(=O)C(N)Cc1c[nH]c2ccccc12)C(N)=O (stereo not shown) (H-[ξW]-[Aib]-NH2)",
    "Metabolic Stability (%) RLM": ">100%"
  },
  {
    "COMPOUND": "CC(C)(NC(=O)C(N)Cc1c[nH]c2ccccc12)C(=O)O (stereo not shown) [reference compound]",
    "Metabolic Stability (%) RLM": ">100%"
  },
  {
    "COMPOUND": "CC(C)(C)OC(=O)N/C(=C\\c1c[nH]c2ccccc12)C(=O)NC(C)(C)C(=O)O [drawing 63]",
    "Metabolic Stability (%) RLM": "81%"
  }
]

Prompt: Entry CN(C(=O)[C@@H](Cc1c[nH]c2ccccc12)NC(=O)OC(C)(C)C)C(C)(C)C(=O)O [drawing 65] (Boc-[dW]-[NMeAib]-OH) has what Metabolic Stability (%) RLM?
Completion: 87%

Prompt: Then what about the compound CC(C)(NC(=O)C(Cc1c[nH]c2ccccc12)NC=O)C(=O)O (stereo not shown) ?
Completion: >100%

Prompt: Then what about the compound CC(=O)NC(Cc1c[nH]c2ccccc12)C(=O)NC(C)(C)C(=O)O (stereo not shown) ?
Completion: >100%

* * *

- Tested on: human P-gp (PGP)
- ASSAY_NAME: Membrane permeability in MDCKII/PGP cells
- Format: in vitro ADME
- RUN_PARAMETERS: dog, MDCK-MDR1; MDCKII cells transfected with human PGP; read-out: Permeability MDCKII/PGP A-B (apical-basolateral flux)
Non-standard residues stand in square brackets, D forms with d. Residues, ends and D or L forms follow the SMILES beside them. ξ: configuration not given here. *: point of attachment. ξNMeW = CNC(Cc1c[nH]c2ccccc12)C(=O)O; ξW = NC(Cc1c[nH]c2ccccc12)C(=O)O; NMeAib = CNC(C)(C)C(=O)O; Boc = CC(C)(C)OC(=O)*; Aib = CC(C)(N)C(=O)O
QUANTITY_MEASURED: Papp A→B (×10⁻⁶ cm/s)
Give the value in ×10⁻⁶ cm/s but do not write ×10⁻⁶ cm/s after it.

Prompt: Entry CC(=O)N[C@H](Cc1c[nH]c2ccccc12)C(=O)N(C)C(C)(C)C(=O)O [drawing 66] (Ac-[dW]-[NMeAib]-OH) has what Papp A→B?
Completion: 0.7

Prompt: Then what about the compound CC(C)(C)OC(=O)N/C(=C\c1c[nH]c2ccccc12)C(=O)NC(C)(C)C(=O)O [drawing 63] ?
Completion: 2.1

Prompt: Then what about the compound CC(=O)N(C)C(Cc1c[nH]c2ccccc12)C(=O)NC(C)(C)C(=O)O (stereo not drawn) (Ac-[ξNMeW]-[Aib]-OH) ?
Completion: 1.3

Prompt: Then what about the compound CN(C(=O)[C@@H](Cc1c[nH]c2ccccc12)NC(=O)OC(C)(C)C)C(C)(C)C(=O)O [drawing 65] (Boc-[dW]-[NMeAib]-OH) ?
Completion: 1.4

Prompt: Then what about the compound CC(C)(NC(=O)C(N)Cc1c[nH]c2ccccc12)C(N)=O (stereo not drawn) (H-[ξW]-[Aib]-NH2) ?
Completion: 1.6

* * *

This section presents compounds with their documented IC50 values.
- EXPERIMENTAL_TARGET: Aβ monomers (Homo sapiens, UniProt P05067)
- Construct: Aβ monomers were covalently coupled to one flow cell of CM7 sensor chips
- Sequence (P05067 672-713 limits assumed): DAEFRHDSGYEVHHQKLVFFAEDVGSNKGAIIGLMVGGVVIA
- ASSAY_NAME: SPR binding assay (BIACORE X100)
- RUN_PARAMETERS: immobilized Aβ monomers, 25° C., steady-state; mean ± SD; read-out: SPR binding IC50 [nM] +/− SD (repeats)
Non-standard residues stand in square brackets, D forms with d. Residues, ends and D or L forms follow the SMILES beside them. *: point of attachment. dNMeW = CN[C@H](Cc1c[nH]c2ccccc12)C(=O)O; NMeAib = CNC(C)(C)C(=O)O; Boc = CC(C)(C)OC(=O)*; Aib = CC(C)(N)C(=O)O
Give the value in nM but do not write nM after it.

[
  {
    "COMPOUND": "CC(=O)N(C)[C@H](Cc1c[nH]c2ccccc12)C(=O)NC(C)(C)C(=O)O [Compound B] (Ac-[dNMeW]-[Aib]-OH)",
    "IC50, nM": 56.4
  },
  {
    "COMPOUND": "CN(C(=O)[C@@H](Cc1c[nH]c2ccccc12)NC(=O)OC(C)(C)C)C(C)(C)C(=O)O [Compound Q] (Boc-[dW]-[NMeAib]-OH)",
    "IC50, nM": 3.8
  },
  {
    "COMPOUND": "CC(=O)N[C@H](Cc1c[nH]c2ccccc12)C(=O)NC(C)(C)C(=O)O",
    "IC50, nM": 2.8
  },
  {
    "COMPOUND": "CC(=O)N[C@H](Cc1c[nH]c2ccccc12)C(=O)N(C)C(C)(C)C(=O)O [Compound R] (Ac-[dW]-[NMeAib]-OH)",
    "IC50, nM": 4.3
  },
  {
    "COMPOUND": "CC(C)(NC(=O)[C@@H](Cc1c[nH]c2ccccc12)NC=O)C(=O)O",
    "IC50, nM": 3.9
  },
  {
    "COMPOUND": "CNC(=O)C(C)(C)NC(=O)[C@H](N)Cc1c[nH]c2ccccc12 [Compound E] (H-[dW]-[Aib]-NHMe)",
    "IC50, nM": 40.2
  }
]

Turning to the following compound.
Prompt: Entry CC(C)(C)OC(=O)N/C(=C\c1c[nH]c2ccccc12)C(=O)NC(C)(C)C(=O)O has what IC50?
Completion: 6.2
